Below, each entry is listed with its recorded z-score.
test: changes in parasitized red cell lysis, either direction – P. falciparum Indochina, OD700, 3 h, PSAC antagonist project, primary screen (AID 1156)
conditions_used: P. falciparum-infected erythrocytes, osmotic lysis, higher = more signal, called active from +8 up or from −8 down

compound	z-score
COC(=O)[C@]1(Cc2ccccc2CN=[N+]=[N-])N=C(c2ccc(OCCCO)cc2)O[C@@H]1c1ccccc1	-0.232
COc1ccc([Si](C)(C)[C@@H]2[C@@H](CCO)O[C@]3(C(=O)N(Cc4ccccc4)c4ccc(N5C(=O)COc6ccccc65)cc43)[C@H]2C)cc1	0.364
C=C(C)[C@@H]1CC=C(C(O)C2C=CC3C(=O)N(C4CCCCC4)C(=O)C3N2Nc2ccc(OC)cc2)CC1 (stereo partly specified)	0.604
O=C1O[C@@H](c2ccccc2)[C@@H](c2ccccc2)N2[C@@H](c3ccc(O)cc3)[C@]3(C(=O)Nc4ccc(C#CC5=CCCCC5)cc43)[C@@H](C(=O)Nc3nc4ccccc4s3)[C@H]12	2.66
CCCC[C@@H](O)C1=C(COc2ccccc2)Cn2c(=O)n(-c3ccccc3)c(=O)n2[C@H]1CO	-0.34
COC(=O)C(CC#Cc1ccc2c(c1)[C@]1(C(=O)N2)[C@H](C(=O)N2CCc3cc(OC)c(OC)cc3C2)[C@H]2C(=O)O[C@H](c3ccccc3)[C@H](c3ccccc3)N2[C@@H]1c1ccc(OCCO)cc1)C(=O)OC	1.15

====

test: optical density shifts of acrAB sulA E. coli – strain DRC41, OD650, 48 h, E. coli filamentation inducer project, primary screen (AID 1152);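 also: E. coli MC1000 strain DRC41 lacking acrAB efflux pump and sulA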
conditions_used: higher = more signal, called active from +8 up or from −8 down

molecule	z-score
[N-]=[N+]=NCc1ccccc1C[C@]1(C(=O)NCCN2CCOCC2)COC(c2ccc(OCCCO)cc2)=N1	0.581
[N-]=[N+]=NCc1ccccc1[C@H]1OC(c2ccc(OCCCO)cc2)=N[C@@]1(Cc1ccccc1)C(N)=O	0.0183
COCCCNC(=O)[C@@H]1c2ccccc2C(=O)N(c2ccc(C)cn2)[C@H]1c1ccc(CO)cc1	-0.889
Cc1ccc(S[C@]2(C(=O)O)CC(=O)N(C3CCCCC3)[C@@H]2c2ccc(CO)cc2)cc1	0.858
Cc1ccc(S[C@]2(C(=O)O)CC(=O)N(Cc3ccccc3C(F)(F)F)[C@@H]2c2ccc(CO)cc2)cc1	0.281
[N-]=[N+]=NCc1ccccc1C[C@@]1(C(=O)NCCN2CCOCC2)N=C(c2ccc(OCCCO)cc2)O[C@@H]1c1ccccc1CN=[N+]=[N-]	0.648
COC(=O)[C@@]1(Cc2ccc(OC)cc2)[C@H]2c3cc(C(=O)N(C)C)n(Cc4cc(F)c(F)c(F)c4)c3C[C@H]2CN1C(=O)c1ccccc1	-1.69
COC(=O)[C@@]1(Cc2ccccc2)[C@H]2c3cc(C(=O)N4CCCC4)n(CCO)c3C[C@H]2CN1C(=O)c1ccccc1	-0.258
C=CC[C@]1(C(=O)NCC(O)CO)N=C(c2ccc(OCCCO)cc2)O[C@H]1c1ccccc1N=[N+]=[N-] (some centres not stated)	0.33
C[N+](C)(C)CCCCCCNC(=O)[C@H]1C[C@H]2C(=O)N3CCC[C@H]3C(=O)N2[C@H]1c1cccc(OCCO)c1	-0.507
CC1(C)[C@@H]2CC(C(O)C3C=CC4C(=O)N(c5ccccc5)C(=O)C4N3Nc3ccccc3F)=C[C@@H]1C2 (some centres not stated)	0.446
COCCOC(=O)N1C(=O)[C@@]2(c3ccccc31)[C@H](c1ccccc1OCCO)N1[C@H](c3ccccc3)[C@H](c3ccccc3)OC(=O)[C@H]1[C@@H]2C(=O)N1CCc2cc(OC)c(OC)cc2C1	0.0509
